tgt: human dopamine D2L receptors (long isoform) (Homo sapiens, UniProt P14416)
Construct: expressed in transfected cells; host or cells: HEK-293
Sequence (P14416 whole entry, canonical isoform): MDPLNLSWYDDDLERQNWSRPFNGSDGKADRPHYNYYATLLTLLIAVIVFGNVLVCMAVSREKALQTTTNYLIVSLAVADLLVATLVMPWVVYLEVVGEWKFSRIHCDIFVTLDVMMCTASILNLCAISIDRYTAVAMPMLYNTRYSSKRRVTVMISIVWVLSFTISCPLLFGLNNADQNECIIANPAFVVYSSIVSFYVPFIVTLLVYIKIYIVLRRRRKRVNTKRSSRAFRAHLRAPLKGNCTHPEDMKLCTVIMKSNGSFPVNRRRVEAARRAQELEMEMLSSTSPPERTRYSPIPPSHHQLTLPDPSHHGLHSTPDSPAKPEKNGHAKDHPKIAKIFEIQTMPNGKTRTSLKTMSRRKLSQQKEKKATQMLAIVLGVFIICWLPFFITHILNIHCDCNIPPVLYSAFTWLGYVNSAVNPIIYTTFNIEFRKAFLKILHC
assay.comment: Dopamine D2L receptor binding, displacement of [125I] iodospiperone
setup.conditions: footnote: ratio of the Ki values of the D3 and D2L binding tests
observable: Selectivity vs. D2L

# annotated cases, reported Selectivity vs. D2L shown
[[record]]
compound = "CCCN1CCN(c2cc(C)c(NS(=O)(=O)c3ccc(C(C)C)cc3)cn2)CC1.Cl"
tgt = "human dopamine D2L receptors (long isoform) (Homo sapiens, UniProt P14416)"
recorded_measurement = 22

[[record]]
compound = "C=CCN1CCN(c2ccc(NS(=O)(=O)c3ccc(C(C)C)cc3)cn2)C[C@@H]1C [Example 13a]"
tgt = "human dopamine D2L receptors (long isoform) (Homo sapiens, UniProt P14416)"
recorded_measurement = 96


a = C=CCN1CC2CC1CN2c1ccc(NS(=O)(=O)c2ccc(C(C)C)cc2)cn1.Cl (stereo not drawn)
b = C=CCN1CCN(c2ccc(NS(=O)(=O)c3ccc(C(C)C)cc3)cn2)C[C@@H]1CC.Cl
c = CCCN1CC2CC1CN2c1ccc(NS(=O)(=O)c2ccc(C(C)C)cc2)cn1.Cl (stereo not drawn)
Challenge: Highest Selectivity vs. D2L first, then in falling order down to the smallest. Return the labels ranked in the requested order, please.
Response given: b, c, a

====

tgt: human dopamine D2L receptors (long isoform) (Homo sapiens, UniProt P14416)
Construct: expressed in transfected cells; host or cells: HEK-293
assay.comment: Dopamine D2L receptor binding, displacement of [125I] iodospiperone
setup.conditions: footnote: ratio of the Ki values of the D3 and D2L binding tests
observable: Selectivity vs. D2L

[[record]]
molecule = "C=CCN1CCN(c2ncc(NS(=O)(=O)c3ccc(C(C)C)cc3)cn2)C[C@@H]1C.Cl"
recorded_measurement = 159


A = CCCN1C(C)CN(c2ncccc2NS(=O)(=O)c2ccc(C(C)C)cc2)CC1C.O=C(O)C(F)(F)F (stereo not shown)
B = C=CCN1CCN(c2ccc(NS(=O)(=O)c3ccc(CCCC)cc3)cn2)CC1
C = C=Cc1ccc(S(=O)(=O)Nc2ccc(N3CCN(CCC)CC3)nc2)cc1.Cl
Challenge: Highest Selectivity vs. D2L first, then in falling order down to the smallest. Return the labels ranked in the requested order, please.
Response given: C, A, B
(C: 96, A: 22, B: 15)
